Recorded values, source the RNAGym collection of RNA variant scans (doi:10.1093/molbev/msab373).

// values below are reported reverse-splicing fitness
B1: Azoarcus group I ribozyme (parent)
chain: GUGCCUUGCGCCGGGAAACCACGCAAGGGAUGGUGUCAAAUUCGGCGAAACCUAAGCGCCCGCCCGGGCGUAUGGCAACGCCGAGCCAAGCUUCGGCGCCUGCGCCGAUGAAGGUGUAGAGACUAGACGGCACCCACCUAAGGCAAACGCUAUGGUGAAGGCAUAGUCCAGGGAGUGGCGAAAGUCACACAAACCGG

Variants of: B1
experiment-description: reverse-splicing fitness (ratio to wild type); higher = more active; in vitro selection; Mg2+ level not given
readout-type: reverse-splicing fitness

residue_change="C82A A111G A120G A145C C150U C169U U176C" assay_value=0.0113
residue_change="C82A A111G A145G U176A" assay_value=0.184
residue_change="C82U A111U A120C A145C C169A" assay_value=0.0065
residue_change="C82G A111C A120U A145U C150G C169A" assay_value=0.00457
residue_change="C82A A111G A120U A145U C150A C169A U176A" assay_value=0.00224
residue_change="C82G A111U A120C A145C C150U C169U U176A" assay_value=0.0127
residue_change="C82G A111U A120C A145U C169U U176G" assay_value=0.00499
residue_change="C82A A111C A120G C150A C169A U176C" assay_value=0.0168
residue_change="A111C A120C C150G C169A U176G" assay_value=0.00561
residue_change="C82G A111U A120C A145C C150A C169U U176G" assay_value=0.00605
residue_change="C82G A111U A120G A145G C150G C169G U176G" assay_value=0.00621
residue_change="C82G A111C A120C A145U C150G U176C" assay_value=0.0099
residue_change="C82U A111G A120G A145G C169G U176C" assay_value=0.0289
residue_change="A111G A120G A145U C169A U176G" assay_value=0.00646
residue_change="C82A A111C A120C A145G C150U C169G" assay_value=0.00829
residue_change="A120U A145G C150A C169G U176A" assay_value=0.012
residue_change="A111U A120C A145U C169A U176A" assay_value=0.00962
residue_change="A111C C150U C169U U176C" assay_value=0.0245
residue_change="C82G A111C A120G C150U C169G U176A" assay_value=0.0141
residue_change="A111C A120C A145C C169A U176C" assay_value=0.00756
residue_change="C82G A111G A120C A145C C150G C169U" assay_value=0.00968
residue_change="C82U A111G A120U C150A U176C" assay_value=0.00592
residue_change="A111C A120G C150G C169A U176C" assay_value=0.0109
residue_change="C82G A111C A120G C150U U176G" assay_value=0.00715
residue_change="C82U A111G A120G A145U C169A U176G" assay_value=0.00425
residue_change="C82G A120U A145U C150G C169A U176C" assay_value=0.00187
residue_change="C82G A111G A120U C150A C169A" assay_value=0.00558
residue_change="C82G A111G A120G A145C C150A C169A U176G" assay_value=0.00537
